STUDY_SYSTEM: T1, Mouse Fc-human GDF15 (Mu IgG1Fc_Fxa_Hu GDF15) (human)
T1 construct: Whole entry is the fusion: mouse IgG1 Fc, FXa site and linker, mature human GDF15; described as dimeric; also called Murine dimeric IgG1 Fc-human GDF-15 with FXa cleavage site; control human GDF15
T1 chain: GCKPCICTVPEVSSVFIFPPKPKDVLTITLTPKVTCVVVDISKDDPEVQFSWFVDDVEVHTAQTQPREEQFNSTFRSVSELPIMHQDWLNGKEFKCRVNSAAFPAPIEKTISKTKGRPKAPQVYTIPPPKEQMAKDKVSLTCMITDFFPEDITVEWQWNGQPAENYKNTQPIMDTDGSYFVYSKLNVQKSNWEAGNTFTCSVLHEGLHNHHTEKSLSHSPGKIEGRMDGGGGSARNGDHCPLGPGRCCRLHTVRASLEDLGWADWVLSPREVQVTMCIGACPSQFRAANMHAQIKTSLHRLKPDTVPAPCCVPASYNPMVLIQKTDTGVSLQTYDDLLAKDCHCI
TEST_DETAILS: SPR BIAcore T200, 37C; Fc-GDF15 captured, IgG as analyte
Description: Mouse Fc-human GDF15 (Mu IgG1Fc_Fxa_Hu GDF15; SEQ ID NO:2), Mouse Fc-mouse GDF15 (Mu IgG1Fc_Fxa_Mu GDF15; SEQ ID NO:5) and Mouse Fc-cynomolgus monkey GDF15 (Mu IgG1Fc_Fxa_Cyno GDF15; SEQ ID NO:4) were captured onto three different flow cells of a CM4 sensorchip (catalogue number BR100534, GE Healthcare) surface using the Mouse Antibody Capture Kit (BR100838, GE Healthcare) according to the manufacturer's protocol. […]
Each entry below lists one item and its recorded Kd value.

• GDF15_0301 (antibody, mouse IgG1, kappa, V domains shown, Tested in bivalent format; also called GDF15_301; mAB2) VH: QVQLQQPGAELVKPGASVKMSCKASGYPFEGWYIHWVKQRPGQGLEWMGWNNPRTGLTNHAQKFQGKATLTVDTSSSTAYMQLSSLTSEDSAVYYCARGVGADAAFDIWGQGTTLTVSS VL: DIVLTQSPSSLSVSAGEKVTMSCRSSQSLLWKHGYNYLDWYQQKPGQPPKLLIYLDRNRAHGVPDRFTGSGSGTDFTLTISSVQAEDLAVYYCMQSFETPITFGGGTKLEIKR = < 0.01 nM
• GDF15_001 (antibody, human IgG1, kappa, V domains shown, Tested in bivalent format; IgG1 heavy chain, kappa light chain; also called ponsegromab; PF-06946860) VH: QVQLVQSGAEVKKPGSSVKVSCKASGYTFSSYNIDWVRQAPGQGLEWMGGINPIFGTAFYNQKFQGRVTITADESTSTAYMELSSLRSEDTAVYYCAREAITTVGAMDHWGQGTLVTVSS VL: EIVLTQSPATLSLSPGERATLSCRTSQSVHNYLAWYQQKPGQAPRLLIYDASTRADGIPARFSGSGSGTDFTLTISSLEPEDFAVYYCQQFWSWPWTFGQGTKVEIKR = < 0.01 nM

We now examine a further binder.
Q: Give the value of Kd reported for the following: GDF15_0297 (antibody, mouse IgG1, kappa, V domains shown, Tested in bivalent format; also called GDF15_297) VH: QVQLQQPGAELVKPGASVKMSCKASGYPFEGWYIHWVKQRPGQGLEWMGWNNPRTGLTNHAQKFQGKVTMTRDTSSSTAYMQLSSLTSEDSAVYYCARGVGADAAFDIWGQGTTLTVSS VL: DIVMTQSPSSLSVSAGEKVTMSCRSSQSLLWKHGYNYLDWYQQKPGQPPKLLIYLDRNRAHGVPDRFTGSGSGTDFTLTISSVQAEDLAVYYCMQSFETPITFGGGTKLEIKR
A: < 0.01 nM
